Source listed as ChEMBL document CHEMBL1909046.

TEST_DETAILS: DRUGMATRIX: Purinergic P2X radioligand binding (ligand: [3H] alpha, beta-Methylene-ATP)
Assay type: cell membranes, Oryctolagus cuniculus, New Zealand albino, Urinary bladder, Membrane
CONDITIONS: Not Active = under 50% inhibition at 10 µM
VALUE_KIND: IC50

Sample answers from the record:
COMPOUND: O=P1(N(CCCl)CCCl)NCCCO1 (centres undefined) [CYCLOPHOSPHAMIDE ANHYDROUS]
IC50: Not Active
//
COMPOUND: Cc1c(N(C)CS(=O)(=O)[O-])c(=O)n(-c2ccccc2)n1C.[Na+] [DIPYRONE SODIUM]
IC50: Not Active
//
COMPOUND: C=C(C)[C@H]1Cc2c(ccc3c2O[C@@H]2COc4cc(OC)c(OC)cc4[C@@H]2C3=O)O1
IC50: Not Active
//
COMPOUND: CC(C(=O)O)c1ccc(-c2ccccc2)c(F)c1 (centres undefined)
IC50: Not Active
//
COMPOUND: Cc1cccc(Nc2cc(Cl)nc(SCC(=O)O)n2)c1C
IC50: Not Active
//
COMPOUND: C[C@H](C(=O)O)c1cccc(C(=O)c2ccccc2)c1
IC50: Not Active
//
COMPOUND: OCCN1CCN(CCCN2c3ccccc3Sc3ccc(Cl)cc32)CC1
IC50: Not Active
//
COMPOUND: CCS(=O)(=O)CCn1c([N+](=O)[O-])cnc1C
IC50: Not Active
//
COMPOUND: CCCCC1C(=O)N(c2ccccc2)N(c2ccccc2)C1=O
IC50: Not Active
//
COMPOUND: C#C[C@]1(O)CC[C@H]2[C@@H]3CCC4=Cc5oncc5C[C@]4(C)[C@H]3CC[C@@]21C
IC50: Not Active

q: Look up IC50: `O=C(/C=C/c1ccc(O)c(O)c1)OCCc1ccccc1`
a: Not Active

q: Fill blank: measured IC50 of the compound `CC[C@H]1OC(=O)[C@H](C)[C@@H](O[C@H]2C[C@@](C)(OC)[C@@H](O)[C@H](C)O2)[C@H](C)[C@@H](O[C@@H]2O[C@H](C)C[C@H](N(C)C)[C@H]2O)[C@](C)(OC)C[C@@H](C)C(=O)[C@H](C)[C@@H](O)[C@]1(C)O` is ____.
a: Not Active

q: I'd like to know its IC50. The compound in question is `CCn1cc(C(=O)O)c(=O)c2cc(F)c(N3CCNCC3)nc21`
a: Not Active

q: Can you look up the measured IC50 of `C[C@@H](O)[C@H]1C(=O)N2C(C(=O)O)=C(S[C@@H]3CN[C@H](C(=O)N(C)C)C3)[C@H](C)[C@H]12` for me?
a: Not Active

====

TEST_DETAILS: DRUGMATRIX: Atrial Natriuretic Factor (ANF) radioligand binding (ligand: [125I] ANF (rat))
Assay type: cell membranes, Cavia porcellus, Dunkin-Hartley, Adrenal gland, Membrane
CONDITIONS: Not Active = under 50% inhibition at 10 µM
VALUE_KIND: Ki

COMPOUND: N[C@@H](Cc1ccc(F)cc1)C(=O)O
Ki: Not Active
--
COMPOUND: CC(C)C[C@H]1C(=O)N2CCC[C@H]2[C@]2(O)O[C@](NC(=O)[C@@H]3C=C4c5cccc6[nH]c(Br)c(c56)C[C@H]4N(C)C3)(C(C)C)C(=O)N12
Ki: Not Active
--
COMPOUND: C[C@@H]1C[C@H]2[C@@H]3CCC4=CC(=O)C=C[C@]4(C)C3=CC[C@]2(C)[C@H]1C(=O)CN1CCN(c2cc(N3CCCC3)nc(N3CCCC3)n2)CC1
Ki: Not Active
--
COMPOUND: NC(=O)N1c2ccccc2C=Cc2ccccc21 [CARBAMAZEPINE]
Ki: Not Active
--
COMPOUND: C#CCN(C)[C@H](C)Cc1ccccc1
Ki: Not Active

q: Any idea what its Ki is? The compound is `O=C(O)c1cccnc1`
a: Not Active

q: Give the measured Ki of `COc1cc(C(=O)NS(=O)(=O)c2ccccc2C)ccc1Cc1cn(C)c2ccc(NC(=O)OC3CCCC3)cc12` .
a: Not Active

q: Which measured Ki value corresponds to `CC(C)(Sc1cc(C(C)(C)C)c(O)c(C(C)(C)C)c1)Sc1cc(C(C)(C)C)c(O)c(C(C)(C)C)c1` ?
a: Not Active

q: Return reported Ki; argument: `CCOC(N)=O`
a: Not Active

q: Please report the recorded Ki for `O=C(/C=C/c1ccc(O)c(O)c1)OCCc1ccccc1` .
a: Not Active

q: State the recorded Ki for this entry: O=P1(N(CCCl)CCCl)NCCCO1 (configuration not stated) [CYCLOPHOSPHAMIDE ANHYDROUS]
a: Not Active

====

ASSAYED_TARGET: Beta-2 adrenergic receptor (Homo sapiens, UniProt P07550)
Sequence (P07550 whole entry): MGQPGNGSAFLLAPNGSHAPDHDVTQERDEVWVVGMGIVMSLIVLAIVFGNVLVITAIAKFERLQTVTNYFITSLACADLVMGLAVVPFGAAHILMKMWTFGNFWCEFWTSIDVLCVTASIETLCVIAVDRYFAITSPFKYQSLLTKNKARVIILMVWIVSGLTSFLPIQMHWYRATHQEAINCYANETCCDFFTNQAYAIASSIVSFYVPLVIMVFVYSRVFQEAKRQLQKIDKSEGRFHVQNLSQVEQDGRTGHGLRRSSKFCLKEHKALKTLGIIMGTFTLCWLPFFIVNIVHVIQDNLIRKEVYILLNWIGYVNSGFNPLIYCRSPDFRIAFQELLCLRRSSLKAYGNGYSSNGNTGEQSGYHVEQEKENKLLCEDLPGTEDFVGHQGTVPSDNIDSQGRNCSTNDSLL
TEST_DETAILS: DRUGMATRIX: Adrenergic beta2 radioligand binding (ligand: [3H] CGP-12177)
Assay type: cell membranes, CHO, Membrane
CONDITIONS: Not Active = under 50% inhibition at 10 µM; read-out: IC50
Provide the recorded IC50 for the entries that follow.
Report the figure in µM without appending any unit label.

q: Bench note: what IC50 did CC(CCc1ccc(O)cc1)NCCc1ccc(O)c(O)c1 (configuration not stated) show?
a: 1.52

q: So what does the record say about IC50 for `C[C@@H]1C[C@H]2[C@@H]3CCC4=CC(=O)C=C[C@]4(C)C3=CC[C@]2(C)[C@H]1C(=O)CN1CCN(c2cc(N3CCCC3)nc(N3CCCC3)n2)CC1` ?
a: 22.7

====

TEST_DETAILS: DRUGMATRIX: Platelet-Derived Growth Factor (PDGF) radioligand binding (ligand: [125I] PDGF)
Format: cell-based
CONDITIONS: nih3t3; Not Active = under 50% inhibition at 10 µM
VALUE_KIND: Ki

Some molecules with known Ki results, for comparison:
MOLECULE: C#C[C@]1(O)CC[C@H]2[C@@H]3CCC4=Cc5oncc5C[C@]4(C)[C@H]3CC[C@@]21C [DANAZOL]
Ki: Not Active
//
MOLECULE: CCOC(N)=O
Ki: Not Active
//
MOLECULE: O=C(O)Cc1ccc(-c2ccccc2)cc1 [FELBINAC]
Ki: Not Active
//
MOLECULE: CO[C@@]1(NC(=O)CSCC#N)C(=O)N2C(C(=O)O)=C(CSc3nnnn3C)CS[C@@H]21 [CEFMETAZOLE]
Ki: Not Active
//
MOLECULE: O=C(/C=C/c1ccc(O)c(O)c1)OCCc1ccccc1 [CAFFEIC ACID PHENETHYL ESTER]
Ki: Not Active

q: Which Ki value is on record for Cc1c(F)c(N2CCNC(C)C2)cc2c1c(=O)c(C(=O)O)cn2C1CC1 (stereo not given) [GREPAFLOXACIN] ?
a: Not Active

q: State the recorded Ki for this entry: `CNS(=O)(=O)Cc1ccc2[nH]cc(CCN(C)C)c2c1`
a: Not Active

q: # input molecule: CC(C(=O)O)c1ccc(-c2ccccc2)c(F)c1 (stereo not given) [FLURBIPROFEN] ; wanted: its Ki
a: Not Active

q: GET /values?readout=Ki&item= Cc1cccc(Nc2ccccc2C(=O)O)c1C [MEFENAMIC ACID]
a: Not Active

q: # get_value(readout='Ki', item= C[C@H]([C@](O)(Cn1cncn1)c1ccc(F)cc1F)S(C)(=O)=O [GENACONAZOLE] )
a: Not Active

====

ASSAYED_TARGET: Melanocortin receptor 4 (Homo sapiens); further: in other assays of this panel Not Active means under 50% inhibition at 10 µM
Sequence (P32245 whole entry): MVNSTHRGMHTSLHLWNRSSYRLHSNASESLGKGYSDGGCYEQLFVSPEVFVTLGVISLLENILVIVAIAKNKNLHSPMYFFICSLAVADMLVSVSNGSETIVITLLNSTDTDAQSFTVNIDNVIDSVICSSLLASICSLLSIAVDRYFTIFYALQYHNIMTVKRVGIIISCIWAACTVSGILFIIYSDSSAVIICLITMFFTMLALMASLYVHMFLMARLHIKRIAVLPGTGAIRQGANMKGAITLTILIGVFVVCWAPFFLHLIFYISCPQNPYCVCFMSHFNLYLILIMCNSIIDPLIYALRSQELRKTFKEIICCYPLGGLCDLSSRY
Assay type: cell membranes, Membrane
CONDITIONS: hek293
VALUE_KIND: IC50

MOLECULE: COc1ccc(CN2CCNCC2)c(OC)c1OC [TRIMETAZIDINE]
IC50: Not Active
//
MOLECULE: COc1cc(N)nc2[nH]c(-c3ccc(F)cc3)c(-c3ccncc3)c12
IC50: Not Active
//
MOLECULE: COc1ccccc1OCC(O)CO (configuration not stated) [GUAIFENESIN]
IC50: Not Active
//
MOLECULE: C[C@@H]1CC[C@H]2[C@@H](C)C(=O)O[C@@H]3O[C@@]4(C)CC[C@@H]1[C@]32OO4 [ARTEMISININ]
IC50: Not Active

q: Short answer please: IC50, Melanocortin receptor 4 (Homo sapiens), entry CC(=O)O[C@]1(C(C)=O)CC[C@H]2[C@@H]3C=C(C)C4=CC(=O)CC[C@]4(C)[C@H]3CC[C@@]21C [MEGESTROL ACETATE]
a: Not Active

q: Record lookup: for Melanocortin receptor 4 (Homo sapiens), what IC50 belongs to Cc1c(N(C)CS(=O)(=O)[O-])c(=O)n(-c2ccccc2)n1C.[Na+] [DIPYRONE SODIUM] ?
a: Not Active

q: # get_value(readout= IC50, system= Melanocortin receptor 4 (Homo sapiens)) for CCCCCC[C@H]1C(=O)O[C@H](C)[C@H](NC(=O)c2cccc(NC=O)c2O)C(=O)O[C@@H](C)[C@@H]1OC(=O)CC(C)C [ANTIMYCIN A]; further: in other assays of this panel Not Active means under 50% inhibition at 10 µM
a: Not Active
